Listing of entries alongside the reported protein stability index.
B1: SMAD6 (parent)
chain: SGLVRRLWRSRVVPDREEGGSGGG

# Variants of: B1
# assay.remarks: protein stability index of a GFP-peptide fusion (GPS, HEK-293T) (PSI 1-6); higher = more stable;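 further: lentivirally expressed fusions sorted by FACS into six bins by GFP to DsRed ratio, PSI derived from sequencing read proportions per bin multiplied by bin number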
# test.context: c terminus: a fixed tail appended
parameter: protein stability index

[[record]]
mutant = "L7I"
parameter = "protein stability index"
value = 4.14

[[record]]
mutant = "V13K"
parameter = "protein stability index"
value = 4.13

[[record]]
mutant = "R5Q"
parameter = "protein stability index"
value = 3.72

[[record]]
mutant = "L3Q"
parameter = "protein stability index"
value = 3.88

[[record]]
mutant = "G19P"
parameter = "protein stability index"
value = 4.07

[[record]]
mutant = "G20W"
parameter = "protein stability index"
value = 1.99

[[record]]
mutant = "R16M"
parameter = "protein stability index"
value = 3.4

[[record]]
mutant = "R11G"
parameter = "protein stability index"
value = 4.98

[[record]]
mutant = "L3N"
parameter = "protein stability index"
value = 4.73

[[record]]
mutant = "L7H"
parameter = "protein stability index"
value = 3.55

[[record]]
mutant = "G2S"
parameter = "protein stability index"
value = 4.17

[[record]]
mutant = "G2L"
parameter = "protein stability index"
value = 3.51

[[record]]
mutant = "W8K"
parameter = "protein stability index"
value = 4.64

[[record]]
mutant = "L3M"
parameter = "protein stability index"
value = 4.06

[[record]]
mutant = "L7Y"
parameter = "protein stability index"
value = 3.82

[[record]]
mutant = "D15P"
parameter = "protein stability index"
value = 3.62

[[record]]
mutant = "R5A"
parameter = "protein stability index"
value = 3.76

[[record]]
mutant = "G20R"
parameter = "protein stability index"
value = 4.04

[[record]]
mutant = "V12I"
parameter = "protein stability index"
value = 4.07

[[record]]
mutant = "S1M"
parameter = "protein stability index"
value = 2.45

[[record]]
mutant = "G22C"
parameter = "protein stability index"
value = 3.04

[[record]]
mutant = "R11W"
parameter = "protein stability index"
value = 2.22

[[record]]
mutant = "S21Y"
parameter = "protein stability index"
value = 3.09

[[record]]
mutant = "G20Q"
parameter = "protein stability index"
value = 3.96

[[record]]
mutant = "G23N"
parameter = "protein stability index"
value = 3.01

[[record]]
mutant = "G24T"
parameter = "protein stability index"
value = 4.01

[[record]]
mutant = "R16Q"
parameter = "protein stability index"
value = 3.67

[[record]]
mutant = "G24K"
parameter = "protein stability index"
value = 3.78

[[record]]
mutant = "G23S"
parameter = "protein stability index"
value = 4.47

[[record]]
mutant = "S10N"
parameter = "protein stability index"
value = 3.89

[[record]]
mutant = "V4G"
parameter = "protein stability index"
value = 3.41

[[record]]
mutant = "R5M"
parameter = "protein stability index"
value = 3.3

[[record]]
mutant = "P14N"
parameter = "protein stability index"
value = 3.77

[[record]]
mutant = "V12F"
parameter = "protein stability index"
value = 3.69

[[record]]
mutant = "E18F"
parameter = "protein stability index"
value = 2.68

[[record]]
mutant = "G19M"
parameter = "protein stability index"
value = 3.35

[[record]]
mutant = "S10W"
parameter = "protein stability index"
value = 2.6

[[record]]
mutant = "E17A"
parameter = "protein stability index"
value = 3.47

[[record]]
mutant = "R6A"
parameter = "protein stability index"
value = 3.27

[[record]]
mutant = "R5I"
parameter = "protein stability index"
value = 2.4

[[record]]
mutant = "D15M"
parameter = "protein stability index"
value = 3.01

[[record]]
mutant = "G23V"
parameter = "protein stability index"
value = 3.78

[[record]]
mutant = "G2M"
parameter = "protein stability index"
value = 3.19

[[record]]
mutant = "V13D"
parameter = "protein stability index"
value = 4.88

[[record]]
mutant = "R16L"
parameter = "protein stability index"
value = 3.34

[[record]]
mutant = "V13F"
parameter = "protein stability index"
value = 3.32

[[record]]
mutant = "G23H"
parameter = "protein stability index"
value = 3.7

[[record]]
mutant = "V4K"
parameter = "protein stability index"
value = 4.45

[[record]]
mutant = "E18Y"
parameter = "protein stability index"
value = 2.44

[[record]]
mutant = "E17R"
parameter = "protein stability index"
value = 2.93

[[record]]
mutant = "S21V"
parameter = "protein stability index"
value = 3.37

[[record]]
mutant = "G24H"
parameter = "protein stability index"
value = 2.83

[[record]]
mutant = "R5S"
parameter = "protein stability index"
value = 3.27

[[record]]
mutant = "S10H"
parameter = "protein stability index"
value = 2.24

[[record]]
mutant = "G22R"
parameter = "protein stability index"
value = 4.48

[[record]]
mutant = "G19A"
parameter = "protein stability index"
value = 4.28

[[record]]
mutant = "G24C"
parameter = "protein stability index"
value = 4.91

[[record]]
mutant = "E18N"
parameter = "protein stability index"
value = 2.42

[[record]]
mutant = "E18I"
parameter = "protein stability index"
value = 4.17

[[record]]
mutant = "P14K"
parameter = "protein stability index"
value = 4.3

[[record]]
mutant = "V12Y"
parameter = "protein stability index"
value = 3.1

[[record]]
mutant = "E17C"
parameter = "protein stability index"
value = 4.26

[[record]]
mutant = "D15T"
parameter = "protein stability index"
value = 4.33

[[record]]
mutant = "E17S"
parameter = "protein stability index"
value = 4.07

[[record]]
mutant = "G23F"
parameter = "protein stability index"
value = 3.13

[[record]]
mutant = "P14Y"
parameter = "protein stability index"
value = 3.02

[[record]]
mutant = "G22E"
parameter = "protein stability index"
value = 4.04

[[record]]
mutant = "S21W"
parameter = "protein stability index"
value = 2.9

[[record]]
mutant = "G2F"
parameter = "protein stability index"
value = 2.93

[[record]]
mutant = "R9T"
parameter = "protein stability index"
value = 2.82

[[record]]
mutant = "G22I"
parameter = "protein stability index"
value = 3.87

[[record]]
mutant = "V12D"
parameter = "protein stability index"
value = 4.76

